Test system: adrenergic α1 receptor
Experiment: Binding assay α1 (non-selective), [3H]prazosin, rat cerebral cortex
Details: percent inhibition of control specific binding; compounds tested at 1×10^−6 M
Lab note: anything with α1 [%] below 90% is marked TRUE; values at 90% or higher are marked FALSE.

Below 90% on α1 [%]? Entry O=C1COc2c(cccc2N2CCN(CCCCNS(=O)(=O)c3ccc(C(F)(F)F)cc3)CC2)N1 [Compound 429]
TRUE

Field: below-cutoff. Rule: recorded α1 [%] strictly less than 90%. Subject: O=S(=O)(NCCCCN1CCN(c2nsc3ccccc23)CC1)c1cc2ccccc2s1 [Compound 239]
FALSE

Just wondering, is α1 [%] of O=S(=O)(NCCCCN1CCC(c2noc3cc(F)ccc23)CC1)c1ccc2cn[nH]c2c1 [Compound 319] below 90%?
FALSE

Problem: For the compound Cc1[nH]c2ccc(Cl)cc2c1C1=CCN(CCNS(=O)(=O)c2cccc(F)c2)CC1 [Compound 450] , is α1 [%] under 90%?
TRUE

I'd appreciate it if you could check whether O=S(=O)(NCCCN1CCN(c2cccc3c2OCCO3)CC1)c1ccc(F)cc1 [Compound 408] has α1 [%] smaller than 90%.
TRUE

Find out if reported α1 [%] for O=c1[nH]c2cccc(N3CCN(CCCCNS(=O)(=O)c4cccc5ccccc45)CC3)c2[nH]1 [Compound 418] is less than 90%
FALSE

Hello, I'm reviewing records and need to know if α1 [%] of O=c1[nH]c2cccc(N3CCN(CCCCNS(=O)(=O)c4cccc(F)c4)CC3)c2[nH]1 [Compound 175] is below 90%. Could you check?
TRUE

Item O=S(=O)(NCCCCN1CCN(c2nsc3ccccc23)CC1)c1c[nH]c2ncccc12 [Compound 247] : α1 [%] beneath 90%, strictly?
FALSE

Please state whether α1 [%] is below 90% for Cc1[nH]c2ccc(Cl)cc2c1C1=CCN(CCCCNS(=O)(=O)c2cccc(Cl)c2)CC1 [Compound 137]
TRUE

Strictly below 90% in α1 [%]? O=S(=O)(NCCCN1CCN(c2nsc3ccccc23)CC1)c1cccc2ccccc12 [Compound 5]
FALSE

Please indicate whether the reported α1 [%] of Cc1cccc(S(=O)(=O)NCCCCN2CCN(c3cccc4[nH]c(=O)[nH]c34)CC2)c1 [Compound 422] is strictly below 90%.
TRUE

Here's an entry: O=S(=O)(NCCCCN1CCC(c2noc3cc(F)ccc23)CC1)c1cccc(C(F)(F)F)c1 [Compound 303] . Is its α1 [%] below 90%?
FALSE

Decide: α1 [%] of Cc1cccc(S(=O)(=O)NCCN2CCC(c3noc4cc(F)ccc34)CC2)c1 [Compound 25] strictly below 90%?
FALSE

Dear reviewer, please state whether O=S(=O)(NCCCCN1CCC(c2noc3cc(F)ccc23)CC1)c1cccc(Cl)c1 [Compound 105] has α1 [%] strictly beneath 90%.
FALSE

Hello, is α1 [%] of the following compound strictly smaller than 90%? O=S(=O)(NCCCCN1CCN(c2nsc3ccccc23)CC1)c1cccc2scnc12 [Compound 243]
FALSE

I wonder whether O=S(=O)(NCCCCN1CCN(c2noc3ccccc23)CC1)c1ccc(F)c(Cl)c1 [Compound 276] has α1 [%] below 90%. Can you tell?
FALSE

Is α1 [%] of O=c1[nH]c2cccc(N3CCN(CCCCNS(=O)(=O)c4ccc5ccccc5c4)CC3)c2[nH]1 [Compound 419] strictly below 90%?
TRUE

Hello, I'm reviewing records and need to know if α1 [%] of CC(C)(C)c1ccc(S(=O)(=O)NCCCN2CCN(c3nsc4ccccc34)CC2)cc1 [Compound 256] is below 90%. Could you check?
TRUE

Record O=S(=O)(NCCCCN1CCN(c2nsc3ccccc23)CC1)c1ccc(F)c(F)c1 [Compound 226] : is its α1 [%] strictly below 90%?
FALSE

Would you kindly verify if α1 [%] of O=S(=O)(NCCCCN1CCC(c2noc3cc(F)ccc23)CC1)c1ccsc1 [Compound 307] is strictly less than 90%?
FALSE

α1 [%] strictly < 90% for this compound? O=S(=O)(NCCCCN1CCN(c2noc3ccccc23)CC1)c1cccc(F)c1 [Compound 87]
FALSE

Determine whether this compound shows α1 [%] lower than 90% (ties excluded): O=c1[nH]c2ccc(S(=O)(=O)NCCCN3CCN(c4nsc5ccccc45)CC3)cc2o1 [Compound 8]
FALSE

Report whether reported α1 [%] is lower than 90% (strictly) for COc1cccc(S(=O)(=O)NCCCCN2CCC(c3noc4cc(F)ccc34)CC2)c1 [Compound 300]
FALSE

Please indicate whether the reported α1 [%] of O=S(=O)(NCCCCN1CCN(c2nsc3ccccc23)CC1)c1cccc(F)c1 [Compound 71] is strictly below 90%.
FALSE

Below 90% on α1 [%]? Entry O=c1[nH]c2ccc(S(=O)(=O)NCCCCN3CCN(c4nsc5ccccc45)CC3)cc2o1 [Compound 4]
FALSE

Consider the compound O=S(=O)(NCCCN1CCC(c2noc3cc(F)ccc23)CC1)c1cc2ccccc2o1 [Compound 349] . Is its α1 [%] strictly less than 90%?
FALSE

Threshold test, α1 [%] < 90%: O=S(=O)(NCCCCN1CCN(c2nsc3ccccc23)CC1)c1ccc2c(c1)CCO2 [Compound 242]
FALSE

Hello, I'm reviewing records and need to know if α1 [%] of O=S(=O)(NCCCN1CCC(c2noc3cc(F)ccc23)CC1)c1ccc(Cl)c(Cl)c1 [Compound 329] is below 90%. Could you check?
FALSE
